Recorded values, source PubChem BioAssay AID1194.

Test system: Salmonella typhimurium Ames mutagenicity, literature compiled
method-description: DSSTox (CPDBAS) Carcinogenic Potency Database Salmonella Mutagenicity
Source text: The Carcinogenic Potency Database (CPDB) is a unique and widely used international resource of the results of over 6500 chronic, long-term animal cancer tests on over 1500 chemical substances. The CPDB provides easy access to the bioassay literature, with qualitative and quantitative analyses of both positive and negative experiments that have been published over the past 50 years in the general literature and by the National Cancer Institute/National Toxicology Program. […]
Calls of active or inactive are those of the source.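 The calls were made as follows: active = chemicals rated mutagenic or weakly mutagenic in the Salmonella bacterial test by one literature review, or positive overall by another; inconclusive = no clear call, values can overlap the other calls; inactive = the rest.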
Please state which outcome applies, choosing from active, inactive

# count of solved cases: 3
1. O=C1OC(c2ccc(O)cc2)(c2ccc(O)cc2)c2ccccc21    inactive
2. O=C1C=C2C(=CCOC2O)O1 (centres undefined)    inactive
3. Cn1cnc([N+](=O)[O-])c1Sc1ncnc2nc[nH]c12    active

Let us examine a further case.
stdin: Per the records of this test, what outcome belongs to CC(=O)Nc1nc(NC(C)=O)nc(-c2ccc([N+](=O)[O-])o2)n1 ?
stdout: active

###

Test system: Salmonella typhimurium Ames mutagenicity, literature compiled
method-description: DSSTox (CPDBAS) Carcinogenic Potency Database Salmonella Mutagenicity
The source made the active and inactive calls.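 Rule for the calls: active = chemicals rated mutagenic or weakly mutagenic in the Salmonella bacterial test by one literature review, or positive overall by another; inconclusive = no clear call, values can overlap the other calls; inactive = the rest.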
Reply using exactly one outcome from yes = active, no = inactive

Example results:
1) CCOc1ccc(NC(N)=O)cc1    no
2) Nc1ccc(Cl)cc1N    yes
3) OCC1CO1 (stereo not drawn)    yes
4) O=S(=O)(c1ccc(Cl)cc1)c1ccc(Cl)cc1    no

stdin: Record lookup: outcome of this test for Nc1cc(S(=O)(=O)O)cc2cc(S(=O)(=O)O)c(N=Nc3ccc(-c4ccc(N=Nc5c(S(=O)(=O)O)cc6cc(S(=O)(=O)O)cc(N)c6c5O)cc4)cc3)c(O)c12 ?
stdout: yes

stdin: Outcome? [Cl-].[Cl-].[Sn+2]
stdout: no

stdin: I'd appreciate the recorded outcome for Clc1ccc2c(c1)Oc1ccc(Cl)cc1O2 from this test.
stdout: no

stdin: Outcome? c1ccoc1
stdout: no

stdin: Can you look up the reported call for CC(C)(Oc1ccc(C2CCCc3ccccc32)cc1)C(=O)O (stereo not drawn) for me?
stdout: no

###

System: Salmonella typhimurium Ames mutagenicity, literature compiled
method-description: DSSTox (CPDBAS) Carcinogenic Potency Database Salmonella Mutagenicity
Active and inactive are the calls of the source.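 Rule for the calls: active = chemicals rated mutagenic or weakly mutagenic in the Salmonella bacterial test by one literature review, or positive overall by another; inconclusive = no clear call, values can overlap the other calls; inactive = the rest.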
quantity-name: outcome

A selection of reference data follows.
1. O=S(=O)(O)c1ccc(N=Nc2cc(S(=O)(=O)O)c3ccccc3c2O)c2ccccc12    active; inactive
2. C/C=C/C=C/C=O    active
3. COc1c2occc2cc2ccc(=O)oc12    active
4. O=NN1CCCCCC1    active

stdin: Supply measured outcome of CN(C)C(=O)Cl in your reply.
stdout: active

stdin: Look up and report measured outcome for this entry: CC(=O)Nc1ccc2c(c1)Cc1ccccc1-2
stdout: active

stdin: Kindly indicate its recorded outcome. Item: C=C(C)[C@H]1CC=C(C)C(=O)C1
stdout: inactive; active

stdin: Query outcome for C=CCO
stdout: inactive

stdin: Give the reported outcome for this molecule. c1ccc(-c2ccccc2)cc1
stdout: inactive

stdin: Input CCCCNC(=O)NS(=O)(=O)c1ccc(C)cc1 , output reported outcome.
stdout: inactive; active

stdin: Please look at this molecule and report its outcome: O
stdout: inactive

stdin: Report outcome for O=NN1CCN(N=O)CC1
stdout: active; inactive

stdin: Provide measured outcome value, entry: Cc1noc(NS(=O)(=O)c2ccc(N)cc2)c1C
stdout: inactive; active

###

Test system: Salmonella typhimurium Ames mutagenicity, literature compiled
method-description: DSSTox (CPDBAS) Carcinogenic Potency Database Salmonella Mutagenicity
Active and inactive are the calls of the source.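 How the source made its calls: active means chemicals rated mutagenic or weakly mutagenic in the Salmonella bacterial test by one literature review, or positive overall by another; inconclusive means no clear call, values can overlap the other calls; inactive means the rest.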
Give one outcome, nothing more. List: Yes = active, No = inactive

Here's what some known entries look like.
1) NC(=O)N/N=C/c1ccc([N+](=O)[O-])o1    Yes
2) CC1=NN(c2ccccc2)C(=O)C1    No
3) C[N+](=O)[O-]    No
4) CN(C)P(=O)(N(C)C)N(C)C    No
5) O=CCCCC=O    Yes
6) C=C1C/C(=C/C)C(=O)O[C@@H]2CCN3CC=C(COC(=O)[C@@]1(O)CO)[C@H]23    Yes
7) c1ccc2n[nH]nc2c1    Yes
8) CN(N=O)C(N)=O    Yes
9) Oc1ccc(Cl)cc1Cc1ccccc1    No
10) O=NN1CCCCCCCCCCCC1    Yes

stdin: What did the test return for Oc1ccc2ccccc2c1N=Nc1ccccc1 ?
stdout: Yes

stdin: Write down the call the test reported for this compound. Item: O=NN1CC=CCC1
stdout: Yes

stdin: Could you kindly confirm the outcome this assay logged for O=C1c2ccccc2C(=O)N1SC(Cl)(Cl)Cl ?
stdout: Yes

stdin: Hi, do you know how Nc1nc(N)nc(-c2ccc([N+](=O)[O-])o2)n1 came out in this test?
stdout: Yes

###

Test system: Salmonella typhimurium Ames mutagenicity, literature compiled
method-description: DSSTox (CPDBAS) Carcinogenic Potency Database Salmonella Mutagenicity
The source made the active and inactive calls.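 Rule for the calls: active = chemicals rated mutagenic or weakly mutagenic in the Salmonella bacterial test by one literature review, or positive overall by another; inconclusive = no clear call, values can overlap the other calls; inactive = the rest.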
Would you mind answering with one of these outcomes? active, inactive

stdin: Called result for O=NN1CCSCC1
stdout: active

###

Tested on: Salmonella typhimurium Ames mutagenicity, literature compiled
method-description: DSSTox (CPDBAS) Carcinogenic Potency Database Salmonella Mutagenicity
Active and inactive are the calls of the source.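 How the source made its calls: active means chemicals rated mutagenic or weakly mutagenic in the Salmonella bacterial test by one literature review, or positive overall by another; inconclusive means no clear call, values can overlap the other calls; inactive means the rest.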
quantity-name: outcome

Previously resolved entries follow.
1. Cc1ccc(C)c(N)c1    active; inactive
2. Clc1ccccc1Cl    inactive
3. Cn1cc[nH]c1=S    inactive; active
4. Nc1nc(N)c2nc(-c3ccccc3)c(N)nc2n1    inactive; active
5. Cc1c(N(C)C)c(=O)n(-c2ccccc2)n1C    active
6. ClCC1CO1 (stereo unspecified)    active; inactive
7. CN(C)c1ccc(N=Nc2ccccc2)cc1    active; inactive
8. Nc1ncn([C@@H]2O[C@H](CO)[C@@H](O)[C@H]2O)c(=O)n1    active

stdin: For the compound CN(C)c1ccccc1 , give its measured outcome value.
stdout: inactive

stdin: Respond only with outcome recorded for CC(=O)Nc1nnc(-c2ccc([N+](=O)[O-])o2)s1
stdout: active

stdin: Specify outcome for Cc1cc(Cc2ccc(N)c(C)c2)ccc1N and stop.
stdout: active

###

Tested on: Salmonella typhimurium Ames mutagenicity, literature compiled
method-description: DSSTox (CPDBAS) Carcinogenic Potency Database Salmonella Mutagenicity
The source made the active and inactive calls.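 Rule for the calls: active = chemicals rated mutagenic or weakly mutagenic in the Salmonella bacterial test by one literature review, or positive overall by another; inconclusive = no clear call, values can overlap the other calls; inactive = the rest.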
quantity-name: outcome

1) Cc1cc(O)c(C(C)(C)C)cc1Sc1cc(C(C)(C)C)c(O)cc1C    inactive; active
2) NNCCO    active; inactive
3) OCCBr    active
4) CCCCCCCCS(=O)C(C)Cc1ccc2c(c1)OCO2 (centres undefined)    inactive; active
5) NC(=O)N(CCO)N=O    active

stdin: Please report the measured outcome for C=Cc1ccccc1 tested on Salmonella typhimurium Ames mutagenicity, literature compiled.
stdout: active; inactive

stdin: Write down the reported outcome (system: Salmonella typhimurium Ames mutagenicity, literature compiled) of OCc1ccccc1
stdout: inactive

stdin: Please report outcome with Salmonella typhimurium Ames mutagenicity, literature compiled for item S=C([S-])NCCNC(=S)[S-].[Zn+2] .
stdout: inactive; active

stdin: Please look at CCCCC1C(=O)N(c2ccccc2)N(c2ccccc2)C1=O and tell me its recorded outcome on Salmonella typhimurium Ames mutagenicity, literature compiled.
stdout: inactive

###

System: Salmonella typhimurium Ames mutagenicity, literature compiled
method-description: DSSTox (CPDBAS) Carcinogenic Potency Database Salmonella Mutagenicity
Active and inactive are the calls of the source.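 Rule for the calls: active = chemicals rated mutagenic or weakly mutagenic in the Salmonella bacterial test by one literature review, or positive overall by another; inconclusive = no clear call, values can overlap the other calls; inactive = the rest.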
The reply should be one of these categories: T (active), F (inactive)

Known results for compounds:
1) NC(=S)NNC(N)=S    F
2) CC1CN(/N=C/c2ccc([N+](=O)[O-])o2)C(=O)N1 (stereo not drawn)    T

stdin: Entry Cl/C=C/CCl : call = ?
stdout: T

stdin: Dear colleague, could you share the recorded outcome for CCCCC(CC)CO (stereo not drawn) when you have a moment?
stdout: F

stdin: Look up the recorded call for CCC[CH2][Sn]([CH2]CCC)([O]C(C)=O)[O]C(C)=O in this test.
stdout: F

###

Test system: Salmonella typhimurium Ames mutagenicity, literature compiled
method-description: DSSTox (CPDBAS) Carcinogenic Potency Database Salmonella Mutagenicity
The source made the active and inactive calls.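 The calls were made as follows: active = chemicals rated mutagenic or weakly mutagenic in the Salmonella bacterial test by one literature review, or positive overall by another; inconclusive = no clear call, values can overlap the other calls; inactive = the rest.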
Field 'call' accepts active, inactive

Past entries and their recorded results:
1) Clc1cccc(-c2ccc(Cl)c(Cl)c2Cl)c1Cl    inactive
2) CCC1(c2ccccc2)C(=O)NC(=O)NC1=O    active
3) CCCCN(CCCC)N=O    active
4) O=C1CCCCC1    inactive
5) Nc1ccc(NCCO)c([N+](=O)[O-])c1    active
6) OC[C@H]1O[C@@](CO)(O[C@H]2O[C@H](CO)[C@@H](O)[C@H](O)[C@H]2O)[C@@H](O)[C@@H]1O    inactive

stdin: // outcome(item) with item = Clc1cc2c(cc1Cl)Oc1cc(Cl)c(Cl)cc1O2
stdout: inactive

stdin: What was the test verdict on O=C(O)COc1cc(Cl)c(Cl)cc1Cl ?
stdout: inactive

stdin: So what was the verdict on BrC(Br)Br in this test?
stdout: active

stdin: Lab log entry: C=CCOC(=O)CC(C)C — outcome as called in the assay?
stdout: inactive

stdin: For c1ccncc1 , which call appears in the assay record?
stdout: inactive

stdin: Record lookup: outcome of this test for [Cl-].[Cl-].[Cl-].[Fe+3] ?
stdout: inactive
